- EXPERIMENT: COS7 lysate on small-molecule microarray, probe aHis, 635 nm (AID 1123);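 note: z-score combines 667nm fluorescence intensity with signal-to-noise per printed compound spot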
- CONDITION LABEL: COS7 cell lysate, fluorescence, higher = more signal

COMPOUND | composite z-score
C=CCNC(=O)[C@@H]1[C@H]2C(=O)O[C@H](c3ccccc3)[C@H](c3ccccc3)N2[C@H](c2ccccc2OCCO)[C@@]12C(=O)N(C(=O)OCCOC)c1ccc(C#CCC(C(=O)OC)C(=O)OC)cc12 | 3.05
C[n+]1ccc2ccc(O)cc2c1 | 0.403
COc1ccc(C(=O)Nc2cccc(CN3C(=O)[C@@]4(O[C@@H](CC(=O)N5Cc6ccccc6C[C@H]5CO)[C@H]([Si](C)(C)c5ccc(OC)cc5)[C@H]4C)c4ccccc43)c2)cc1 | 1.15
CCCCCN1CC=CC23O[C@@H]4C=CCCOC(=O)C4[C@H]2C(=O)N(CCCO)[C@@H]3C1=O (some centres not stated) | -0.0684
Cc1ccc(S[C@]2(C(=O)NCCCN(C)C)CC(=O)N(C(C)C)[C@@H]2c2ccc(CO)cc2I)cc1 | 1.23
CCCC[C@H]1OB(O)C[C@H]2C1=C(COc1ccccc1)C[C@H]1C(=O)N(Cc3ccccc3)C(=O)[C@H]12 | 0.383
C=C(C)[C@@H]1CC=C(C(O)C2C=CC3C(=O)N(Cc4ccccc4)C(=O)C3N2n2cnnc2)CC1 (some centres not stated) | 0.341

---

- SYSTEM NAME: Focal adhesion kinase 1 (Homo sapiens) (UniProt Q05397)
- Sequence (Q05397 whole entry, looked up): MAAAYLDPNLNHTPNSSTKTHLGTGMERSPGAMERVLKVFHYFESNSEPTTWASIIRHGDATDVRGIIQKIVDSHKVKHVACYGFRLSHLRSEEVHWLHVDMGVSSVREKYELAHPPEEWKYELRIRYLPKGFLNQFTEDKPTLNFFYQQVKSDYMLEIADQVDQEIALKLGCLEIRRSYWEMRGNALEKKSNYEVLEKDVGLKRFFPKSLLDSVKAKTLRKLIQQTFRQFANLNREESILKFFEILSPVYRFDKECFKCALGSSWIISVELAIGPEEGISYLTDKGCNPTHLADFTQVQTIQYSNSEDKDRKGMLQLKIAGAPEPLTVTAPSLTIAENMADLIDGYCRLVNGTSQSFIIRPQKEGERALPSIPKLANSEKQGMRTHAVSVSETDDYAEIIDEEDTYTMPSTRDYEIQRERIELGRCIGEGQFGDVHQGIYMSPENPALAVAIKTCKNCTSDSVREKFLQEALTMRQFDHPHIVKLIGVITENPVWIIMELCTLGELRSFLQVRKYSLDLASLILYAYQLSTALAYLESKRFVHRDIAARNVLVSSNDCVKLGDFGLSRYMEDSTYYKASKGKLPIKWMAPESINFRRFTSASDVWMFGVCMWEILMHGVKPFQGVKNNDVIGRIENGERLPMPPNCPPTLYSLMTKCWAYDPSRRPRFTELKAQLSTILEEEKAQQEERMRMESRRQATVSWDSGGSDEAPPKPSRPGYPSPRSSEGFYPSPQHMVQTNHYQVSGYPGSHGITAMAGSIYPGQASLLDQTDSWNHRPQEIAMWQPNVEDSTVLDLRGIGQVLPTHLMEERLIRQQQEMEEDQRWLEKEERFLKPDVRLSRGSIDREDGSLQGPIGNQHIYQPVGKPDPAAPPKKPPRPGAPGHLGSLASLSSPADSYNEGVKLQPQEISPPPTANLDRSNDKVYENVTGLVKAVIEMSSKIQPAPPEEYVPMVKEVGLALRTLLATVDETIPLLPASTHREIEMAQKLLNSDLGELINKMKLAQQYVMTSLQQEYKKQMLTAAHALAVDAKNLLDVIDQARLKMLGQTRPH
- EXPERIMENT: PTK2 protein binding on printed compound slides – biochemical, small-molecule microarray, 635/667 nm fluorescence, BSA, DTT, primary screen (AID 1130);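 note: composite of spot emission at 667 nm and signal to noise over triplicate slides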
- CONDITION LABEL: 635 nm fluorescence, higher = more signal
We begin with a simple list: items and their reported composite z-score.

COMPOUND | composite z-score
O=C(NCc1ccccc1)[C@@H]1c2ccccc2C(=O)N(Cc2cc(F)cc(C(F)(F)F)c2)[C@H]1c1ccc(CO)cc1 | 0.187
CC(=O)N1Cc2ccccc2C[C@@]2(N=C(c3ccc(OCCCO)cc3)O[C@H]2c2ccccc2)C1=O | 0.52
C=C(C(=O)CC[C@H](OC(=O)c1cccnc1)c1ccccc1OCCO)C(C)C | 0.092
COc1ccc([Si](C)(C)[C@@H]2[C@@H](CCO)O[C@]3(C(=O)N(Cc4cccc(N(C=O)c5ccccc5)c4)c4ccccc43)[C@H]2C)cc1 | 0.228
COC(=O)[C@@]1(Cc2ccc(F)cc2)[C@H]2c3cc(C(=O)N4CCCC4)n(CCc4ccc(OC)c(Br)c4)c3C[C@H]2CN1C(=O)c1ccccc1 | 1.32
CCCC[C@@H]1C[C@H]1[C@@H](NC(=O)c1ccco1)c1ccccc1 | -0.107
COCCOC(=O)N1C(=O)[C@@]2(c3cc(C#Cc4ccc(OC)cc4)ccc31)[C@H](c1ccc(O)cc1)N1[C@H](c3ccccc3)[C@H](c3ccccc3)OC(=O)[C@H]1[C@@H]2C(=O)N1CCN(c2ncccn2)CC1 | 0.351
CCN(CC)c1ccc(N2CC=CC34O[C@@H]5/C=C\CCCOC(=O)C5[C@H]3C(=O)N(CCCO)[C@@H]4C2=O)cc1 (some centres undefined) | -0.426
Cc1ccc(N2C(=O)c3ccccc3[C@](C)(C(=O)NCCN3CCOCC3)[C@@H]2c2ccc(CO)cc2)nc1 | -1.16
CO[C@H]1O[C@H](CO)[C@@H](OC(=O)Nc2ccccc2-c2ccccc2)[C@H](OC(=O)Nc2ccccc2-c2ccccc2)[C@H]1OC(=O)Nc1ccccc1-c1ccccc1 | 0.464
CC(C)NC(=O)[C@@H]1c2ccccc2C(=O)N(C2CCCCC2)[C@H]1c1ccc(CO)cc1 | 0.517
O=C(NCCN1CCOCC1)[C@@H]1c2ccccc2C(=O)N(Cc2cc(F)cc(C(F)(F)F)c2)[C@H]1c1ccc(CO)cc1 | 0.205
C=CCCN(CC#C[C@H]1Oc2ccccc2S(=O)(=O)N2CCC[C@@H]12)S(=O)(=O)c1ccc(C)cc1 | 0.172
COCCOC(=O)N1C(=O)[C@@]2(c3ccccc31)[C@H](c1ccc(O)cc1)N1[C@H](c3ccccc3)[C@H](c3ccccc3)OC(=O)[C@H]1[C@@H]2C(N)=O | -0.046

---

- EXPERIMENT: viability profiling in MM1S myeloma cells – cell-based, resazurin fluorescence, basal, 24 h, PK04 Diversity Set, profiling panel (AID 1174);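 note: MM1S multiple myeloma cell line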
- CONDITION LABEL: higher = more signal, called active from +8 up or from −8 down
Attribute: z-score

COMPOUND | z-score
COCCOC(=O)N1C(=O)[C@@]2(c3cc(C#CCCO)ccc31)[C@H](C(=O)NC[C@H](O)c1ccccc1)[C@H]1C(=O)O[C@H](c3ccccc3)[C@H](c3ccccc3)N1[C@@H]2c1ccc(OCCO)cc1 | 0.857
COc1c(C)cc(-c2cc3c(c(-c4ccccc4)n2)[Si](C(C)C)(C(C)C)O[C@H]3c2ccccc2)cc1C | -0.477
CN1C(=O)C2C=CC(C(O)C(c3ccccc3)c3ccccc3)N(Nc3ccccc3)C2C1=O (centres undefined) | -0.978
C[N+](C)(C)CCCC[C@@H]1NC(=O)[C@@H]2C[C@H](C(=O)NCCCCCCNC(=O)CS)[C@H](c3cccc(OCCO)c3)N2C1=O | -0.0664

---

Overview of reported composite z-score across a group of molecules:
- System: XIP peptide (Xip251-270) binding
- EXPERIMENT: XIP fragment 251-270 binding compounds – biochemical, small-molecule microarray, fluorescence 635/667 nm, 0.1 µg/mL protein, primary screen (AID 1182)
- CONDITION LABEL: fluorescent protein binding, 635 nm, higher = more signal, called active from +8 up or from −8 down
QUANTITY: composite z-score

SMILES DATA | SYSTEM NAME | QUANTITY | MEASURED VALUE
C=C(/C(=C/C[C@@H](OC(=O)c1ccncc1)c1ccc(CO)o1)c1cc(C(=O)OC)ccc1OC)C(C)C | XIP peptide (Xip251-270) binding | composite z-score | 0.18
COc1ccc(C#Cc2ccc3c(c2)[C@]2(C(=O)N3)[C@H](C(=O)N3CCN(c4ncccn4)CC3)[C@H]3C(=O)O[C@H](c4ccccc4)[C@H](c4ccccc4)N3[C@@H]2c2ccc(O)cc2)cc1 | XIP peptide (Xip251-270) binding | composite z-score | -0.219
[N-]=[N+]=NCc1ccccc1C[C@]1(C(=O)N2CCOCC2)N=C(c2ccc(OCCCO)cc2)O[C@H]1c1ccccc1 | XIP peptide (Xip251-270) binding | composite z-score | 0.855
O=C1O[C@H](c2ccccc2)[C@H](c2ccccc2)N2[C@H]1[C@@H](C(=O)Nc1nc3ccccc3s1)[C@]1(C(=O)Nc3ccc(C#CC4=CCCCC4)cc31)[C@H]2c1ccc(OCCO)cc1 | XIP peptide (Xip251-270) binding | composite z-score | -0.172
COC(=O)[C@@]1(Cc2ccccc2)[C@H]2c3cc(C(=O)N(C)C)n(Cc4cc(F)c(F)c(F)c4)c3C[C@H]2CN1C(=O)c1ccccc1 | XIP peptide (Xip251-270) binding | composite z-score | -0.218
Cc1ccc(F)cc1S(=O)(=O)N[C@@H]1CCN(Cc2ccc(C(F)(F)F)cc2)C1 | XIP peptide (Xip251-270) binding | composite z-score | 0.0254

---

- System: Plasmodium falciparum Sir2 (PF13_0152, Sir2A)
- EXPERIMENT: Plasmodium falciparum Sir2A binding compounds – biochemical, small-molecule microarray, 635 nm fluorescence, primary screen (AID 1098);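 note: score merges spot fluorescence intensity with its signal-to-noise ratio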
- CONDITION LABEL: fluorescence 635 nm, higher = more signal
QUANTITY: composite z-score

MOLECULE | QUANTITY | MEASURED VALUE
O=C(NCC(O)CO)[C@@]1(Cc2ccccc2)N=C(c2ccc(OCCCO)cc2)O[C@H]1c1ccccc1 (some centres not stated) | composite z-score | 0.616
COC(=O)c1nc2oc1CC[C@@H](CO)NC(=O)N(C)Cc1cn(nn1)C[C@H](Cc1ccccc1)NC2=O | composite z-score | 0.68
CC(=O)NCCCC[C@@H]1NC(=O)[C@@H]2C[C@H](C(=O)NCCCCCC[N+](C)(C)C)[C@H](c3cccc(OCCO)c3)N2C1=O | composite z-score | 1.13
C=C(CCCC)C(=O)CC[C@@H](OC(=O)c1ccccc1-c1ccccc1C(=O)O)c1ccc(CO)o1 | composite z-score | 0.628
O=C1OCC=C[C@H]2OC34C=CCN(c5ccc6ccccc6c5)C(=O)[C@H]3N(CCO)C(=O)[C@@H]4[C@@H]12 (some centres not stated) | composite z-score | 1.07
COc1ccc([Si](C)(C)[C@H]2[C@H](CC(=O)N3CCC[C@H]3CO)O[C@@]3(C(=O)N(Cc4cccc(N5CCC5=O)c4)c4ccccc43)[C@@H]2C)cc1 | composite z-score | 1.11
COc1ccc([Si](C)(C)[C@@H]2[C@@H](CCO)O[C@]3(C(=O)N(Cc4ccc(N5C(=O)c6cccc7cccc5c67)cc4)c4ccccc43)[C@H]2C)cc1 | composite z-score | 1.03
